# System Tested: Ba/F3 EGFR L858R/T790M (LT) (Homo sapiens, UniProt P00533, T790M/L858R, cells depend on it)
# Sequence (P00533 whole entry T790M/L858R): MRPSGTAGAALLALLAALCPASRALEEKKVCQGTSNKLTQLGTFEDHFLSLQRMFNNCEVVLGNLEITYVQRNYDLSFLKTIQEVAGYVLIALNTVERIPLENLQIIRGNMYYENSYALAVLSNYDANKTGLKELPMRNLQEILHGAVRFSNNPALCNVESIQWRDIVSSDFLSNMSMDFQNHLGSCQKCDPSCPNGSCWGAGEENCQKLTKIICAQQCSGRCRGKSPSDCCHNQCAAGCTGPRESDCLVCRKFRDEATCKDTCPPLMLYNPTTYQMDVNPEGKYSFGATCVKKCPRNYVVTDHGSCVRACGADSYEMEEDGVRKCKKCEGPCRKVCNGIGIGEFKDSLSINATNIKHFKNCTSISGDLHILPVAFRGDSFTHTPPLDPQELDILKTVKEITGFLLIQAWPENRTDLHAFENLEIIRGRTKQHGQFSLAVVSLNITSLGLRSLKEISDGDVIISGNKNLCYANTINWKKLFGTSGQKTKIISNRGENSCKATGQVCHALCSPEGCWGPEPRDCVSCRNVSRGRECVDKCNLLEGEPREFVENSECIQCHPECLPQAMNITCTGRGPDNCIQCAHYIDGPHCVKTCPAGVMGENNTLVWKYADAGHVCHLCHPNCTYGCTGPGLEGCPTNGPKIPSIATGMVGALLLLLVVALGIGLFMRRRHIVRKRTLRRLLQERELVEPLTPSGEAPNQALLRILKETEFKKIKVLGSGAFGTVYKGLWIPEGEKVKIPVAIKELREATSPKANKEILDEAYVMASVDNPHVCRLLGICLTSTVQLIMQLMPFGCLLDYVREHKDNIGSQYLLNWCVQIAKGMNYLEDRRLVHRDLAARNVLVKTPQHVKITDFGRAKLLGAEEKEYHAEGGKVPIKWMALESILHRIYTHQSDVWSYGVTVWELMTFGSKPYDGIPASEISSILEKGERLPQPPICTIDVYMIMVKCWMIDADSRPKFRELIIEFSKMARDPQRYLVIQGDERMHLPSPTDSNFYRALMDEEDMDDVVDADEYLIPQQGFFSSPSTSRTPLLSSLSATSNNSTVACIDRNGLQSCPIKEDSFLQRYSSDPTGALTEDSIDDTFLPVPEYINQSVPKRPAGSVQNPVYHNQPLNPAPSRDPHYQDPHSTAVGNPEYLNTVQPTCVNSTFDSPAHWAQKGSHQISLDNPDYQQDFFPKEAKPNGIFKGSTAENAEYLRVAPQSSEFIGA
# Assay Summary: Cell growth inhibitory ability in Ba/F3 cells overexpressing EGFR L858R/T790M (MTS, CellTiter 96 AQueous)
# Type: cell-based
# Condition Context: 72 hours, MTS absorbance at 490 nm, read-out: Ba/F3 EGFR double mutant L858R/T790M, IC50
Result Type: GI50

Completed entries (count: 5):
{"Compound": "COc1cc(C(=O)N[C@@H](c2cc3ccccc3[nH]2)c2cc(F)ccc2O)cc(-c2ccc(N3CCC(N)CC3)cc2)c1", "GI50": "> 200 nM"}
{"Compound": "Cc1cc(C(=O)N[C@@H](c2cc3ccccc3[nH]2)c2cc(F)ccc2O)cc(-c2cnc(N3CCC(N)CC3)nc2C)c1", "GI50": "< 30 nM"}
{"Compound": "Cc1cc(C(=O)NC(c2cc3ccccc3[nH]2)c2cc(F)ccc2O)cc(-c2ccc(N3CCC(N)CC3)cc2)c1 (stereo not drawn)", "GI50": "< 30 nM"}
{"Compound": "Cc1cc(C(=O)N[C@@H](c2cc3ccccc3[nH]2)c2cc(F)ccc2O)cc(-c2ccc(N3CCC(N)CC3)nn2)c1", "GI50": "30 to 200 nM"}
{"Compound": "Cc1cc(C(=O)N[C@@H](c2cc3ccccc3[nH]2)c2cc(F)ccc2O)cc(-c2ccc(CN3CCC(N(C)C)CC3)cn2)c1", "GI50": "< 30 nM"}

Moving on to another compound below.
Task: Tell me the measured GI50 of `Cc1cc(C(=O)N[C@@H](c2cc3ccccc3[nH]2)c2cc(F)ccc2O)cc(-c2ncc(N3CCN(C(=O)OC(C)(C)C)CC3)cn2)c1` , please.
Result: > 200 nM

###

Below, each of the molecules is paired with its reported GI50 value.
# System Tested: Ba/F3 EGFR L858R/T790M (LT) (Homo sapiens, UniProt P00533, T790M/L858R, cells depend on it)
# Assay Summary: Cell growth inhibitory ability in Ba/F3 cells overexpressing EGFR L858R/T790M (MTS, CellTiter 96 AQueous)
# Type: cell-based
# Condition Context: 72 hours, MTS absorbance at 490 nm, read-out: Ba/F3 EGFR double mutant L858R/T790M, IC50

{"Structure Notation": "CC(C)c1cc(C(=O)N[C@@H](c2cc3ccccc3[nH]2)c2cc(F)ccc2O)cc(-c2ccc(N3CCC(N)CC3)cc2)c1", "GI50": "> 0.2 µM"}

Task: Given `NC1CCN(c2ccc(-c3cc(F)cc(C(=O)N[C@@H](c4cc5ccccc5[nH]4)c4cc(F)ccc4O)c3)cc2)CC1` , state its recorded GI50.
Result: < 0.03 µM

Task: Data request, read-out GI50, for `CC(C)(C)c1cc(C(=O)N[C@@H](c2cc3ccccc3[nH]2)c2cc(F)ccc2O)cc(-c2ccc(N3CCC(N)CC3)cc2)c1`
Result: > 0.2 µM

Task: Given the entry `NC1CCN(c2ccc(-c3cc(C(=O)N[C@@H](c4cc5ccccc5[nH]4)c4cc(F)ccc4O)cc(C(F)(F)F)c3)cc2)CC1` , report its measured GI50.
Result: > 0.2 µM

Task: Which GI50 is reported for this molecule? `Cc1cc(C(=O)N[C@@H](c2cc3ccccc3[nH]2)c2cc(F)ccc2O)cc(-c2ncc(N3CCN(C4CCN(C)CC4)CC3)cn2)c1`
Result: < 0.03 µM

Task: Field request: GI50 | item: `Cc1c(C(=O)N[C@@H](c2cc3ccccc3[nH]2)c2cc(F)ccc2O)cccc1-c1ccc(N2CCC(N)CC2)cc1`
Result: > 0.2 µM

###

# System Tested: Ba/F3 EGFR L858R/T790M/C797S (LTC) (Homo sapiens, UniProt P00533, T790M/C797S/L858R, cells depend on it)
# Sequence (P00533 whole entry T790M/C797S/L858R): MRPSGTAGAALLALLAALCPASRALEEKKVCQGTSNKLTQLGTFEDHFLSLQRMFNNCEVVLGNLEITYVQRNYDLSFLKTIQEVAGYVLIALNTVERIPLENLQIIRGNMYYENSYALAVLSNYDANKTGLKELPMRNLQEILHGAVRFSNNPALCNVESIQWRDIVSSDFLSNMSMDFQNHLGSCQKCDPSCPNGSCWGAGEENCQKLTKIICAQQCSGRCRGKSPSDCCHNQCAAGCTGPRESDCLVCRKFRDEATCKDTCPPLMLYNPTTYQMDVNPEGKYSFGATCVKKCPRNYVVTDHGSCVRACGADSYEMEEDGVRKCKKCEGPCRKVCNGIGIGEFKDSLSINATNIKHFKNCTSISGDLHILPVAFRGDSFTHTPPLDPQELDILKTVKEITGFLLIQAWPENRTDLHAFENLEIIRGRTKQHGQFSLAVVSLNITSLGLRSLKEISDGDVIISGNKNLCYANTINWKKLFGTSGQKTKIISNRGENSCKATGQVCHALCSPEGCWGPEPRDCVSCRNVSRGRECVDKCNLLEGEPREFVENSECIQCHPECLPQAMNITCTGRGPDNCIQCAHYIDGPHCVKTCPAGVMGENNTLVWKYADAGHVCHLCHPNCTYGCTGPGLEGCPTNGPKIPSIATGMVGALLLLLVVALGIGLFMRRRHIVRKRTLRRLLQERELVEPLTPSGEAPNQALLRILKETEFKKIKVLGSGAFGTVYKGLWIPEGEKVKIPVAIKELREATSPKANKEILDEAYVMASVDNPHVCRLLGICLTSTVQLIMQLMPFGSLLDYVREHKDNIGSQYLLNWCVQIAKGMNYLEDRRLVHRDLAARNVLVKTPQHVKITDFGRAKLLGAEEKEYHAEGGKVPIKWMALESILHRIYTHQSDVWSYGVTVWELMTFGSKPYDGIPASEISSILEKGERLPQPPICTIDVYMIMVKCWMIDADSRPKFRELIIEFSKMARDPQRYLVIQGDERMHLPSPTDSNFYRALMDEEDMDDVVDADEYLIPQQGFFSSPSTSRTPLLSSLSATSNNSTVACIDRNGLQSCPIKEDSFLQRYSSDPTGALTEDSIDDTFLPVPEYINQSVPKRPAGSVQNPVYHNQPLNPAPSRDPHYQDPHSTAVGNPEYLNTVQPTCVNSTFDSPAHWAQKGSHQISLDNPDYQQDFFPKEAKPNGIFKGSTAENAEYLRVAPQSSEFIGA
# Assay Summary: Cell growth inhibitory ability in Ba/F3 cells overexpressing EGFR L858R/T790M/C797S (MTS, CellTiter 96 AQueous)
# Format: cell-based
# Condition Context: 72 hours, MTS absorbance at 490 nm, read-out: Ba/F3 EGFR triple mutant L858R/T790M/C797S, IC50
We begin with a simple list: items and their reported GI50.

{"Structure Notation": "COc1cc(C(=O)N[C@@H](c2cc3ccccc3[nH]2)c2cc(F)ccc2O)cc(-c2ccc(N3CCC(N)CC3)cc2)c1", "GI50": "> 200 nM"}
{"Structure Notation": "NC1CCN(c2ccc(-c3cc(C(=O)N[C@@H](c4cc5ccccc5[nH]4)c4cc(F)ccc4O)ccn3)cc2)CC1", "GI50": "> 200 nM"}
{"Structure Notation": "Cc1cc(C(=O)N[C@@H](c2cc3ccccc3[nH]2)c2cc(F)ccc2O)cc(-c2ncc(N3C4CCC3CN(C)C4)cn2)c1", "GI50": "< 30 nM"}
{"Structure Notation": "NC1CCN(c2ccc(-c3cc(Cl)cc(C(=O)N[C@@H](c4cc5ccccc5[nH]4)c4cc(F)ccc4O)c3)cc2)CC1", "GI50": "30 to 200 nM"}
{"Structure Notation": "CC(C)(C)c1cc(C(=O)N[C@@H](c2cc3ccccc3[nH]2)c2cc(F)ccc2O)cc(-c2ccc(N3CCC(N)CC3)cc2)c1", "GI50": "> 200 nM"}
{"Structure Notation": "Cc1cc(C(=O)N[C@@H](c2cc3ccccc3[nH]2)c2cc(F)ccc2O)cc(-c2ccc(CN3CCC(N(C)C)CC3)cn2)c1", "GI50": "30 to 200 nM"}

Task: What measured GI50 goes with `Cc1cc(C(=O)N[C@@H](c2cc3ccc(Cl)cc3[nH]2)c2cc(F)ccc2O)cc(-c2ccc(N3CCC(N)CC3)cc2)c1` ?
Result: > 200 nM

Task: Fill in: GI50 of `Cc1cc(C(=O)N[C@H](c2cc3ccccc3[nH]2)c2cc(F)ccc2O)cc(-c2ccc(N3CCC(N)CC3)cc2)c1` is ___
Result: > 200 nM

Task: Any idea what its GI50 is? The molecule is `Cc1cc(C(=O)N[C@@H](c2cc3ccccc3[nH]2)c2cc(F)ccc2O)cc(-c2ncc(N3CCNCC3)cn2)c1`
Result: < 30 nM

Task: If you can, please state the reported GI50 value of `Cc1cc(C(=O)N[C@@H](c2cc3ccccc3[nH]2)c2cc(F)ccc2O)cc(-c2ccc(N3CCC(N)CC3)cn2)c1` .
Result: < 30 nM

Task: Consider the molecule shown here: `Cc1cc(C(=O)N[C@@H](c2cc3ccccc3[nH]2)c2cc(F)ccc2O)cc(-c2cnc(N3CCC(N)CC3)nc2C)c1` What is its recorded GI50?
Result: 30 to 200 nM

Task: Could you share which GI50 value was measured for `CCN(CC)C1CCN(c2cnc(-c3cc(C)cc(C(=O)N[C@@H](c4cc5ccccc5[nH]4)c4cc(F)ccc4O)c3)nc2)CC1` ?
Result: < 30 nM

Task: Reported GI50 for `Cc1cc(C(=O)N[C@@H](c2cc3ccccc3[nH]2)c2cc(F)ccc2O)cc(-c2ncc(N3CCC(n4cccc4)CC3)cn2)c1` : what is it?
Result: > 200 nM

###

Below, each entry is listed with its recorded GI50.
# System Tested: Ba/F3 EGFR L858R/T790M (LT) (Homo sapiens, UniProt P00533, T790M/L858R, cells depend on it)
# Assay Summary: Cell growth inhibitory ability in Ba/F3 cells overexpressing EGFR L858R/T790M (MTS, CellTiter 96 AQueous)
# Format: cell-based
# Condition Context: 72 hours, MTS absorbance at 490 nm, read-out: Ba/F3 EGFR double mutant L858R/T790M, IC50

As a guide, the following entries are already answered.
{"Molecule": "Cc1cc(C(=O)N[C@@H](c2cc3ccccc3[nH]2)c2cc(F)ccc2O)cc(-c2ccc(N3CCC(N)CC3)cc2F)c1 [Example 24]", "Reported": "< 30 nM"}
{"Molecule": "NC1CCN(c2ccc(-c3cc(C(=O)N[C@@H](c4cc5ccccc5[nH]4)c4cc(F)ccc4O)ccn3)cc2)CC1 [Example 14]", "Reported": "30 to 200 nM"}
{"Molecule": "Cc1cc(C(=O)N[C@@H](c2cc3ccccc3[nH]2)c2cc(F)ccc2O)cc(-c2cnc(N3CCC(N)CC3)nc2)c1 [Example 16]", "Reported": "< 30 nM"}

# ---- query molecule ----
Task: # GI50 lookup, item Cc1cc(C(=O)N[C@@H](c2cc3ccccc3[nH]2)c2cc(F)ccc2O)cc(-c2ncc(N3CCC(N(C)C)CC3)cn2)c1 [Example 39]
Result: < 30 nM
